- test-system: Nav 1.7 (Homo sapiens (Human), UniProt Q15858)
- Sequence (Q15858 whole entry): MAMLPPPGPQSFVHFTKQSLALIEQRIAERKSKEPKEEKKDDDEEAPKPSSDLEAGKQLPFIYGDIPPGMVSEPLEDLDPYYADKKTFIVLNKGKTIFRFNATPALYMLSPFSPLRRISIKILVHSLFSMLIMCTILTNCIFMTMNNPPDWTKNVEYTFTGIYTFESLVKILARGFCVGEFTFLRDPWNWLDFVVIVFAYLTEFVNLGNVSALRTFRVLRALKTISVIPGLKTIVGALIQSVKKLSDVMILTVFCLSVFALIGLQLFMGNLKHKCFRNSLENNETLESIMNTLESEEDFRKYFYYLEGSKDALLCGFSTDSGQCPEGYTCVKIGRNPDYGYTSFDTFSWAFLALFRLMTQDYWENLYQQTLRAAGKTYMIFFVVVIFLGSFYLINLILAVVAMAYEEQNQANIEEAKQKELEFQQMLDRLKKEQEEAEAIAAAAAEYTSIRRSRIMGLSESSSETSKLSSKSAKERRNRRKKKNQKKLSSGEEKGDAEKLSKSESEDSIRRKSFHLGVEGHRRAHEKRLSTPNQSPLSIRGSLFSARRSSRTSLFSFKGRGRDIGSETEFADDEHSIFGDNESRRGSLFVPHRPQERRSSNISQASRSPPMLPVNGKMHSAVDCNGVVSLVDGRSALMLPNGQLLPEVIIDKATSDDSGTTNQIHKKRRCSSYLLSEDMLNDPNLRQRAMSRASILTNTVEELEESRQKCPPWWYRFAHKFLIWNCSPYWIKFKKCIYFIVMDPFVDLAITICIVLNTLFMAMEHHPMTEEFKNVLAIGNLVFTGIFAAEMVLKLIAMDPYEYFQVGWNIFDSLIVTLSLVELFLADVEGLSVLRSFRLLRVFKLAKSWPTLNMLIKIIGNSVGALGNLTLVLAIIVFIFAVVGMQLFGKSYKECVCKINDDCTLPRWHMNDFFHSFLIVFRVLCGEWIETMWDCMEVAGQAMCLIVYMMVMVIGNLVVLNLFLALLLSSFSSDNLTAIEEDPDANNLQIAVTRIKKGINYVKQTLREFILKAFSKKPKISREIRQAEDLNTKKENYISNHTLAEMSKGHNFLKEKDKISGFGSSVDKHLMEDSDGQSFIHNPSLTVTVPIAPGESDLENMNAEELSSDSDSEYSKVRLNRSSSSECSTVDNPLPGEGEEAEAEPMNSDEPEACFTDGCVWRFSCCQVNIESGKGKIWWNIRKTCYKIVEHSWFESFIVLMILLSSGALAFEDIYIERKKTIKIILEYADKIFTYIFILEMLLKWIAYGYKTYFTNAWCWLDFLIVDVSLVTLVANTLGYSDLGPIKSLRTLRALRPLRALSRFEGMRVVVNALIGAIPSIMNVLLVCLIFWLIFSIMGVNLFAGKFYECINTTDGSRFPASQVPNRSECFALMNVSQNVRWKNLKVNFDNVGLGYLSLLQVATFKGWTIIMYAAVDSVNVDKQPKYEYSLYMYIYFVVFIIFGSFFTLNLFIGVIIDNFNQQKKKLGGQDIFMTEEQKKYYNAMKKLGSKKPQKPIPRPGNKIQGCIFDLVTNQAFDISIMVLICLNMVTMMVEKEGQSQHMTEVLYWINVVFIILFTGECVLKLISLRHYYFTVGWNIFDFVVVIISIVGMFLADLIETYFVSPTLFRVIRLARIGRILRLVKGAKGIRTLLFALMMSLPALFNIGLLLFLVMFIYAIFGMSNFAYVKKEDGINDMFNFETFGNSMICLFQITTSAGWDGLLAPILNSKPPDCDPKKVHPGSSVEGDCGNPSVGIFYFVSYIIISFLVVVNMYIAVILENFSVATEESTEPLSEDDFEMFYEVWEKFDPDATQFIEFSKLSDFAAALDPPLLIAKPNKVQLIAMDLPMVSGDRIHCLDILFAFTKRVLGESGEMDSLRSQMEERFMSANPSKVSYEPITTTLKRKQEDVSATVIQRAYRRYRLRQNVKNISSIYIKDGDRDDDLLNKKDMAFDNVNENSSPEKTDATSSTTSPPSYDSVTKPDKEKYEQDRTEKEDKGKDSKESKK
- run-description: in-vitro Nav 1.7 PX data
- Assay type: cell-based
pIC50: −log10 of the molar value.
Criterion: pIC50 meeting or surpassing 7. Met: true (1). Not met: false (0).

Some entries whose results are on file:
O=S(=O)(Nc1ccon1)c1ccc2c(-c3ccc(-c4cccc(F)c4)cc3CO)nccc2c1 [Example 12, 2,2,2-TRIFLUOROACETATE] | false (0)
COc1cc(-c2cc(F)cnc2OC)c(C#N)cc1-c1ncnc2cc(S(=O)(=O)Nc3nncs3)ccc12 | false (0)
COc1cc(-c2cccc(F)c2)c(Cl)cc1-c1ncc(C#N)c2cc(S(=O)(=O)Nc3ccon3)ccc12 | false (0)

Qu. Given the entry `COc1cc(-c2cccc(F)c2)c(Cl)cc1-c1nn(C)c(=O)c2cc(S(=O)(=O)Nc3ccon3)ccc12` , answer whether its pIC50 meets or surpasses 7.
Ans. true (1)

Qu. hey, is pIC50 for this one >= 7? `COc1nnc(NS(=O)(=O)c2ccc3c(-c4ccc(-c5cc(F)cc(F)c5)cc4OC)nccc3c2)s1`
Ans. false (0)

Qu. Reported pIC50 at or above 7? COc1cc(-c2cc(F)cc(F)c2)ccc1-c1nccc2cc(S(=O)(=O)Nc3ccsn3)ccc12 [Example 5, 2,2,2-TRIFLUOROACETATE]
Ans. false (0)
